- Measured target: T1, human ROR2 expressed on the cell surface (human, UniProt Q01974 34-943)
- T1 construct: Endogenous ROR2 of human tumour cell lines; also called cell surface ROR2; ROR2 on tumour cell lines
- T1 sequence (Q01974 34-943 limits assumed): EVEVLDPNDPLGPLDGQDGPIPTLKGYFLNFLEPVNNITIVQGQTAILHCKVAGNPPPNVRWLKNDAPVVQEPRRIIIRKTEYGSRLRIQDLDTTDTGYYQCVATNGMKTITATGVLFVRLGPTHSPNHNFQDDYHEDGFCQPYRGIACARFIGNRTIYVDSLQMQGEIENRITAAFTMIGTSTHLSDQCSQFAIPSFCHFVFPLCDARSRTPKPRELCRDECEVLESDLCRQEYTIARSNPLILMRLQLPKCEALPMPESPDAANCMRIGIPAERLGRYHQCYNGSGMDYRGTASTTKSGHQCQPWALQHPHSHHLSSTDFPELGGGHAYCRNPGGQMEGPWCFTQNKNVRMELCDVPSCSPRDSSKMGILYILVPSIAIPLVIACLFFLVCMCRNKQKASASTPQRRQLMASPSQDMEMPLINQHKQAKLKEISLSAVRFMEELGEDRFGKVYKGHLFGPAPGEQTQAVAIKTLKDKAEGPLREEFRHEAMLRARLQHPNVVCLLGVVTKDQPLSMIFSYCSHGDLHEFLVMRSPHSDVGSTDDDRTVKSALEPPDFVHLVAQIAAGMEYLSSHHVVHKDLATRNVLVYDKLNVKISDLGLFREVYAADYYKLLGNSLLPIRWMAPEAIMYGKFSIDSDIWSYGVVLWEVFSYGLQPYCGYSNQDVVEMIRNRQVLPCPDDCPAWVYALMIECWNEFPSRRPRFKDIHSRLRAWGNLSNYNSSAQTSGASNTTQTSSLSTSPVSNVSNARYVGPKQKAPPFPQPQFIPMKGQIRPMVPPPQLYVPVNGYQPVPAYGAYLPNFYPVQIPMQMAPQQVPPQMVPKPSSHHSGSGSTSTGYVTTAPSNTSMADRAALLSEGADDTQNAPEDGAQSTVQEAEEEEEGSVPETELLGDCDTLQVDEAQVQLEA
- Protocol details: flow cytometry, SKNJB cells (neuroblastoma)
- Set-up: unit not given here
Observed property: binding intensity

1) ROR2-241 full length human IgG1 antibody (antibody, V domains shown) VH: EVQLVQSGAEVKKPGASVKVSCKASGYTFTNYYIHWVRQAPGQGLEWMGIINPTSGRTRYAQRFQGRVTMTRDTSTNTVYMDLSSLRSEDTAMYYCARSGYYWGVNGDQWGQGTLVTVSS VL: SYELTQPLSVSVALGQTARITCGGNNIGSKNVHWYQQKPGQAPVLVIYRDSNRPSGIPERFSGSNSGNTATLTISRAQAGDEADYYCQVWDSSIVVFGGGTKLTVLG: 238
2) ROR2-23 full length human IgG1 antibody (antibody, V domains shown, The light chain of clone 023 is labelled kappa; also called clone #23; clone #023 IgG1) VH: EVQLVQSGAEVKKPGESLKISCQGSGYRFSKYWIGWVRQMPGKGLEWMGIIYPGDSDTRYSPSFQGQVTISADKSISTAYLQWSSLKASDTAMYYCARSFSSFIYDYWGQGTLVTVSS VL: ETTLTQSPGTLSVSPGERATLSCRASQSVSSNLAWYQQKRGQAPRLLIYGASTRATGIPVRFSGSGSGTEFTLTISRLEPEDFAVYYCQQYGRSPLTFGGGTKVDIKR: 182
3) ROR2-27 full length human IgG1 antibody (antibody, V domains shown, also called clone #27; clone #027 IgG1) VH: QVQLVESGAEVKKPGESLKISCKASGYSFSNYWIGWVRQMPGKGLEWMGIIYPDDSDTRYSPSFQGQVTISADKSISTAYLQWYSLKVADTAKYYCVRPRGAFDIWGQGTTVTVSS VL: QSVLTQPPSVSGAPGQRVTISCTGSSSNIGAGHAVHWYQQLPGTAPKLLIYDNANRPSGVPDRFSGSQSGTSASLAITGLQTGDEADYYCGTWDDSPSAYVFGTGTKVTVLG: 141
4) ROR2-240 full length human IgG1 antibody (antibody, V domains shown, also called clone #240 IgG1) VH: QITLKESGPELVKPTQTLTLTCTFSGFSLSTSGMSVSWIRQPPGKALEWLARIDWDDDKYYSTSLKTRLTISKDTSKNQVVLTMTNTDPVDTATYYCARGFYLAYGSYDSWGQGTLVTVSS VL: QSALTQPASVSGSPGQSITISCTGTSGDVGGYNYVSWYQHHPGKAPKLIIYDVNKRPSGFSDRFSGSKSGNTASLTISGLQAEDEADYYCSSYTSTSTVFGGGTKLTVLG: 199
